Test system: UACC-257 melanoma
assay_remarks: NCI tumour cell line growth inhibition, 48 h
Item-by-item account of TGI
experimental_endpoint: TGI (µM)

# compound, units, measurement_qualifier, recorded_result
data = [
    ("COc1ccc2c(c1)C(C)Cc1c(Cl)nc(C)nc1N2C (stereo unspecified)", "µM", "=", 37.8),
    ("Nc1cc(N)c2nc(-c3ccccc3)c(NCc3ccc(F)cc3)nc2c1", "µM", "=", 4.26),
    ("O=C(O)CC1(CC(=O)O)Nc2ccccc2SC1=O", "µM", ">", 100),
    ("CC(c1ccccc1)/[N+]([O-])=C/c1ccccc1 (stereo unspecified)", "µM", ">", 100),
    ("COc1ccc(C(=O)N(C(=S)OCCOc2ccccc2)c2ccccc2)cc1", "µM", ">", 100),
    ("S=C(Nc1cc(Cl)c(Cl)cc1Cl)SCc1ccccc1", "µM", "=", 37.6),
    ("CCOc1ccc(NCC2CC/C(=C\\c3ccc(O)cc3)C2=O)cc1 (stereo unspecified)", "µM", "=", 30.7),
    ("N#Cc1cc([N+](=O)[O-])ccc1NC(=O)/C(=N/N)C(C(=O)c1ccc(Cl)c(Cl)c1)C1OC(=O)c2ccccc21 (stereo unspecified)", "µM", ">", 100),
    ("O=C(/C=C/c1ccc(Cl)cc1)c1cccs1", "µM", "=", 37.4),
    ("O=C(O)CC1OCC=C2CN3CCC45C6=CC(=O)C(=O)C([N+](=O)[O-])=C6NC4C1C2CC35 (stereo unspecified)", "µM", ">", 100),
    ("CCSc1nc(=[N+]2CCCC2)ss1", "µM", ">", 100),
]

###

This section presents compounds with their documented TGI values.
System: K-562 leukemia
assay_remarks: NCI tumour cell line growth inhibition, 48 h
experimental_endpoint: TGI (µM)

# compound, measurement_qualifier, recorded_result
rows = [
    ("Cc1ccc2c(c1)-c1c(C#N)c(N)nc(-c3ccccc3)c1CCS2(=O)=O", "=", 11.7),
    ("c1ccc(C2OCC(OC3CCCCO3)CO2)cc1 (stereo not given)", ">", 100),
    ("CC(C)(C)OC(=O)N(CCNS(=O)(=O)c1cccc2cnccc12)CCC(=O)ON1C(=O)CCC1=O", ">", 100),
    ("C=C1C(=O)O[C@H]2[C@H]3O[C@@H](C[C@@H]12)[C@@]1(C)CC[C@H](O1)C(C)=CCC[C@H]3C", "=", 3.09),
    ("O=c1[nH]c(-c2ccc(-c3nc4cc([N+](=O)[O-])ccc4c(=O)[nH]3)cc2)nc2cc([N+](=O)[O-])ccc12", ">", 100),
]

###

Test system: MALME-3M melanoma
assay_remarks: NCI tumour cell line growth inhibition, 48 h
experimental_endpoint: log10 TGI (log10 of the value in µM)

# molecule, log10 TGI
data = [
    ("Cc1ccc(S(=O)(=O)NNC2(NS(=O)(=O)c3ccc(Cl)cc3)C(Cl)=C(Cl)C(=O)c3ccccc32)cc1 (centres undefined)", 1.52),
    ("O=C(/C=C/c1ccccc1)CSc1nc2ccc(I)cc2c(=O)n1Cc1ccccc1", 1.71),
    ("CC(C)(C#N)c1cc(C(=O)Nc2cc(Nc3ncccc3-c3ncnc4nc[nH]c34)ccc2F)cc(C(F)(F)F)c1", -0.63),
    ("CC1CCC(C(C)C)C(O[C@@H]2OC(=O)C[C@@H]2Sc2ccccc2)C1 (some centres undefined)", 1.77),
    ("CC12c3c4cc(Br)cc3Oc3cc(Br)cc(c31)Oc1cc(Br)cc(c12)O4", 1.57),
]
